tested on: KM12
fulfilled if GI50 is below 2000 nM. not fulfilled if not; exact matches included in not fulfilled.

Study these solved cases before continuing.
Field: below-cutoff. Rule: recorded GI50 strictly less than 2000 nM. Subject: `O=C(N/N=C/c1cc(Br)c[nH]1)c1[nH]c2ccc(Br)cc2c1-c1ccccc1` fulfilled

Field: below-cutoff. Rule: recorded GI50 strictly less than 2000 nM. Subject: `O=C(N/N=C/c1[nH]ccc1Cl)c1[nH]c2ccc(Br)cc2c1-c1ccccc1` fulfilled

Field: below-cutoff. Rule: recorded GI50 strictly less than 2000 nM. Subject: `CCOC(=O)c1c[nH]c(/C=N/NC(=O)c2[nH]c3ccc(Br)cc3c2-c2ccccc2)c1` not fulfilled

Field: below-cutoff. Rule: recorded GI50 strictly less than 2000 nM. Subject: `CCOC(=O)c1ccc(/C=N/NC(=O)c2[nH]c3ccc(Br)cc3c2-c2ccccc2)[nH]1` not fulfilled

***
Field: below-cutoff. Rule: recorded GI50 strictly less than 2000 nM. Subject: `O=C(N/N=C/c1ccc([N+](=O)[O-])[nH]1)c1[nH]c2ccc(Br)cc2c1-c1ccccc1` fulfilled

Field: below-cutoff. Rule: recorded GI50 strictly less than 2000 nM. Subject: `Cc1cc(C)c(/C=N/NC(=O)c2[nH]c3ccc(Br)cc3c2-c2ccccc2)[nH]1` not fulfilled

====

Quick reference: CC50 of the listed items.
test system: OVCAR-8; test: NCI60 five-dose screen; format: cell-based; conditions: Homo sapiens; OVCAR-8, ovarian cancer; read-out: LC50 (the source's name)
State the answer as a number, implicitly in µM.

Given O=C(N/N=C/c1cc(Br)c(Br)[nH]1)c1[nH]c2ccc(Br)cc2c1-c1ccccc1 [Derivative 3f] , respond with its CC50. 17.2

Given O=C(N/N=C/c1ccc(C(=O)N2CCOCC2)[nH]1)c1[nH]c2ccc(Br)cc2c1-c1ccccc1 [Derivative 3n] , respond with its CC50. 43.1

Given O=C(N/N=C/c1ccc([N+](=O)[O-])[nH]1)c1[nH]c2ccc(Br)cc2c1-c1ccccc1 [Derivative 3p] , respond with its CC50. 39

Given Cc1[nH]c(/C=N/NC(=O)c2[nH]c3ccc(Br)cc3c2-c2ccccc2)c(C)c1[N+](=O)[O-] [Derivative 3r] , respond with its CC50. 36.5

Given O=C(N/N=C/c1cc(Br)c[nH]1)c1[nH]c2ccc(Br)cc2c1-c1ccccc1 [Derivative 3e] , respond with its CC50. 18.2

Given Cc1cc(C)c(/C=N/NC(=O)c2[nH]c3ccc(Br)cc3c2-c2ccccc2)[nH]1 [Derivative 3c] , respond with its CC50. 45

Given CCOC(=O)c1cc(/C=N/NC(=O)c2[nH]c3ccc(Br)cc3c2-c2ccccc2)c[nH]1 [Derivative 3v] , respond with its CC50. 38.5

Given CCOC(=O)c1ccc(/C=N/NC(=O)c2[nH]c3ccc(Br)cc3c2-c2ccccc2)[nH]1 [Derivative 3i] , respond with its CC50. 47.6

Given O=C(N/N=C/c1[nH]ccc1Cl)c1[nH]c2ccc(Br)cc2c1-c1ccccc1 [Derivative 3g] , respond with its CC50. 27.7

Given CCc1c[nH]c(/C=N/NC(=O)c2[nH]c3ccc(Br)cc3c2-c2ccccc2)c1 [Derivative 3t] , respond with its CC50. 26

Given O=C(N/N=C/c1cc(Cl)c[nH]1)c1[nH]c2ccc(Br)cc2c1-c1ccccc1 [Derivative 3h] , respond with its CC50. 0.988

Given CCOC(=O)c1c[nH]c(/C=N/NC(=O)c2[nH]c3ccc(Br)cc3c2-c2ccccc2)c1 [Derivative 3j] , respond with its CC50. 23.7

Given CCc1ccc(/C=N/NC(=O)c2[nH]c3ccc(Br)cc3c2-c2ccccc2)[nH]1 [Derivative 3s] , respond with its CC50. 25.2

Given CCc1cc[nH]c1/C=N/NC(=O)c1[nH]c2ccc(Br)cc2c1-c1ccccc1 [Derivative 3u] , respond with its CC50. 39.8

Given O=C(N/N=C/c1ccc[nH]1)c1[nH]c2ccc(Br)cc2c1-c1ccccc1 [Derivative 3a] , respond with its CC50. 6.55

Given O=C(N/N=C/c1cc[nH]c1)c1[nH]c2ccc(Br)cc2c1-c1ccccc1 [Derivative 3b] , respond with its CC50. 38.6

====

test system: BT-549
ENDPOINT NAME: GI50 (nM)
State the answer as a number, implicitly in nM.

Solved cases below.
Given `O=C(N/N=C/c1cc([N+](=O)[O-])c[nH]1)c1[nH]c2ccc(Br)cc2c1-c1ccccc1` , respond with its GI50. 2470

Given `CCc1ccc(/C=N/NC(=O)c2[nH]c3ccc(Br)cc3c2-c2ccccc2)[nH]1` , respond with its GI50. 979

Given `CCOC(=O)c1c[nH]c(/C=N/NC(=O)c2[nH]c3ccc(Br)cc3c2-c2ccccc2)c1` , respond with its GI50. 2230

Attention now shifts to the item below.
Given `Cn1cccc1/C=N/NC(=O)c1[nH]c2ccc(Br)cc2c1-c1ccccc1` , respond with its GI50. 2810

====

system: NCI-H460
Lab note: class by GI50, see low: < 400 nM; mid: ≥ 400 nM and < 1000 nM; high: ≥ 1000 nM

Study these solved cases before continuing.
Please report the category associated with O=C(N/N=C/c1cc(Cl)c[nH]1)c1[nH]c2ccc(Br)cc2c1-c1ccccc1 [Derivative 3h] , nothing else. low

Please report the category associated with CCOC(=O)c1ccc(/C=N/NC(=O)c2[nH]c3ccc(Br)cc3c2-c2ccccc2)[nH]1 [Derivative 3i] , nothing else. high

Please report the category associated with O=C(N/N=C/c1cc([N+](=O)[O-])c[nH]1)c1[nH]c2ccc(Br)cc2c1-c1ccccc1 [Derivative 3q] , nothing else. low

Please report the category associated with O=C(N/N=C/c1cc(Br)c[nH]1)c1[nH]c2ccc(Br)cc2c1-c1ccccc1 [Derivative 3e] , nothing else. low

Please report the category associated with CCc1cc[nH]c1/C=N/NC(=O)c1[nH]c2ccc(Br)cc2c1-c1ccccc1 [Derivative 3u] , nothing else. high

Please report the category associated with Cc1[nH]c(/C=N/NC(=O)c2[nH]c3ccc(Br)cc3c2-c2ccccc2)c(C)c1[N+](=O)[O-] [Derivative 3r] , nothing else. high

Please report the category associated with Cc1cc(C)c(/C=N/NC(=O)c2[nH]c3ccc(Br)cc3c2-c2ccccc2)[nH]1 [Derivative 3c] , nothing else. high

Please report the category associated with Cn1cccc1/C=N/NC(=O)c1[nH]c2ccc(Br)cc2c1-c1ccccc1 [Derivative 3d] , nothing else. mid

Lab note: next compound to report on.
Please report the category associated with O=C(N/N=C/c1[nH]ccc1Cl)c1[nH]c2ccc(Br)cc2c1-c1ccccc1 [Derivative 3g] , nothing else. mid

====

tested on: OVCAR-4; test: NCI60 five-dose screen; assay type: cell-based; conditions: Homo sapiens; OVCAR-4, ovarian cancer; read-out: LC50 (the source's name)
ENDPOINT NAME: CC50 (µM)
State the answer as a number, implicitly in µM.

Solved cases below.
Given `CCOC(=O)c1cc(/C=N/NC(=O)c2[nH]c3ccc(Br)cc3c2-c2ccccc2)c[nH]1` , respond with its CC50. 52.8

Given `O=C(N/N=C/c1cc(Cl)c[nH]1)c1[nH]c2ccc(Br)cc2c1-c1ccccc1` , respond with its CC50. 34.1

Given `O=C(N/N=C/c1ccc[nH]1)c1[nH]c2ccc(Br)cc2c1-c1ccccc1` , respond with its CC50. 33.6

Given `Cc1[nH]c(/C=N/NC(=O)c2[nH]c3ccc(Br)cc3c2-c2ccccc2)c(C)c1[N+](=O)[O-]` , respond with its CC50. 18.8

Given `O=C(N/N=C/c1[nH]ccc1Cl)c1[nH]c2ccc(Br)cc2c1-c1ccccc1` , respond with its CC50. 43.5

***
Given `O=C(N/N=C/c1cc[nH]c1)c1[nH]c2ccc(Br)cc2c1-c1ccccc1` , respond with its CC50. 45.2

Given `CCOC(=O)c1c[nH]c(/C=N/NC(=O)c2[nH]c3ccc(Br)cc3c2-c2ccccc2)c1` , respond with its CC50. 34.8

Given `CCc1c[nH]c(/C=N/NC(=O)c2[nH]c3ccc(Br)cc3c2-c2ccccc2)c1` , respond with its CC50. 43

Given `O=C(N/N=C/c1cc(Br)c(Br)[nH]1)c1[nH]c2ccc(Br)cc2c1-c1ccccc1` , respond with its CC50. 45.8

Given `CCc1ccc(/C=N/NC(=O)c2[nH]c3ccc(Br)cc3c2-c2ccccc2)[nH]1` , respond with its CC50. 53.7

====

Data export: pIC50 values recorded with UniProt:P11511.
Sequence (P11511 whole entry): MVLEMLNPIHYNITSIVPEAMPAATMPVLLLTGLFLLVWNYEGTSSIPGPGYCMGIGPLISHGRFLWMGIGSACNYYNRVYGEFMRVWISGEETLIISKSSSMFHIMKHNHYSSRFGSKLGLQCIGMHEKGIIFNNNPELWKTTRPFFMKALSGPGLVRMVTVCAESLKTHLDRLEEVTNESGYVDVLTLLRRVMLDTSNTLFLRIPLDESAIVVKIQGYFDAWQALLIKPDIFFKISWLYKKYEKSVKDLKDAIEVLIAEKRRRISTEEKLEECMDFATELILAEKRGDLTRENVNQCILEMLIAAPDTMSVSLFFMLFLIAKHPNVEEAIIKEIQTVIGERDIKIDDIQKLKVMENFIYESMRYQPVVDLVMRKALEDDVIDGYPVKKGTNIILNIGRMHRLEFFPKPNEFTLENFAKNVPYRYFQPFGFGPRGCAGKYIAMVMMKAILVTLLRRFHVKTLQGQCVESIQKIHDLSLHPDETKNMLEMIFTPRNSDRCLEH
As a rule, pIC50 stands for the negative log10 of the concentration, concentration in M.

Solved cases below.
Tell me pIC50 of O=C(N/N=C/c1ccco1)c1[nH]c2ccc(Br)cc2c1-c1ccccc1 [Derivative 1a, reference compound] when tested on UniProt:P11511. 4.95

Tell me pIC50 of `Cc1cc(C)c(/C=N/NC(=O)c2[nH]c3ccc(Br)cc3c2-c2ccccc2)[nH]1` when tested on UniProt:P11511. 4.95

Tell me pIC50 of `CCOC(=O)c1cc(/C=N/NC(=O)c2[nH]c3ccc(Br)cc3c2-c2ccccc2)c[nH]1` when tested on UniProt:P11511. 5.60

***
Tell me pIC50 of `O=C(N/N=C/c1cc(Br)c(Br)[nH]1)c1[nH]c2ccc(Br)cc2c1-c1ccccc1` when tested on UniProt:P11511. 5.82

Tell me pIC50 of `CCc1ccc(/C=N/NC(=O)c2[nH]c3ccc(Br)cc3c2-c2ccccc2)[nH]1` when tested on UniProt:P11511. 5.34

Tell me pIC50 of `O=C(N/N=C/c1ccc([N+](=O)[O-])[nH]1)c1[nH]c2ccc(Br)cc2c1-c1ccccc1` when tested on UniProt:P11511. 5.85

Tell me pIC50 of `O=C(N/N=C/c1cc[nH]c1)c1[nH]c2ccc(Br)cc2c1-c1ccccc1` when tested on UniProt:P11511. 4.96
